# Test system: A498 renal
# assay name: NCI-60 one-dose screen, 48 h (100 = growth as untreated, 0 = no growth, -100 = all killed)
# run parameters: 10 µM unless noted
Compounds without any hit were thinned out: in the full panel of roughly 83,000, 20% have a hit.
Decision: growth beneath 60% gives 1; growth meeting or exceeding 60% gives -1.

compound	assigned class
O=[N+]([O-])c1cccc(-c2cc(-c3cc(Br)ccc3O)[nH]n2)c1	1
CCn1cc(C2NC(=O)c3cc(F)ccc3N2)c2cccc(Cl)c21 (configuration not stated)	1
CC1=NN2C(=NC3=C(CCC/C3=C\c3ccc(Cl)cc3)C2c2ccc(Cl)cc2)S1 (configuration not stated)	-1
NC(=O)c1cccc(N2Cc3ccccc3OC3=C2C(=O)c2c(O)ccc(O)c2C3=O)c1	-1
COc1ccc(S(=O)(=O)N2CCN(c3cc4c(cc3F)c(=O)c(C(=O)O)cn4C3CC3)CC2)c(OC)c1	-1

We now examine a further compound.
Say whether its growth is strictly beneath 60%. Entry: COc1ccc(/C=C2\C(=O)N(C(=O)c3csc(NC(C)=O)n3)N=C2C)cc1
-1

====

# System: SF-295 CNS
# assay name: NCI-60 one-dose screen, 48 h
# run parameters: 10 µM unless noted
The panel holds about 83,000 compounds, 20% with a hit somewhere; the sample as a whole holds those more often. Active and inactive are the calls of the source. The calls were made as follows: active = growth percent below 10; inactive = the rest.
API: response.call in 1.0 = active, 0.0 = inactive

Completed entries (count: 3):
compound	assigned class
COc1cc(CCn2nnc3c(Nc4ccc(N5CCOCC5)cc4)ncnc32)cc(OC)c1	0.0
CN(C)CCCNC(=O)C(c1ccccc1)c1ccccc1	0.0
Oc1ccc(Cl)cc1-c1cc(-c2ccc(Cl)cc2)n[nH]1	0.0

Record request — test call for Cc1ccc2nc(-c3c(N)n[nH]c3CCCO)[nH]c(=O)c2c1
0.0

Record request — test call for O=C(Cc1n[nH]c(=O)c2ccccc12)OCc1c(Cl)cccc1Cl
0.0

Record request — test call for O=C(Nc1ccc(OCc2nnc(-c3ccc(Cl)cc3)o2)c(F)c1)Nc1ccc(Cl)c(Cl)c1
0.0

Record request — test call for O=[N+]([O-])c1ccc(S(=O)(=O)N2CCN(c3ccnc4cc(Cl)ccc34)CC2)c([N+](=O)[O-])c1
0.0

Record request — test call for CN1CCN(CCCOc2ccc3nc(Nc4ccc(C(F)(F)F)c(Cl)c4)ccc3c2)CC1
1.0

Record request — test call for CCn1cc(C(=O)O)c(=O)c2cc(F)c(N3CCN(S(=O)(=O)c4ccc(OC)c(OC)c4)CC3)cc21
0.0

Record request — test call for COc1ccc(OC)c(-c2ccc(-c3ccccc3N)c3[nH]c4ccccc4c23)c1
0.0

Record request — test call for O=C1CCC(=O)N1Cc1ccccc1
0.0

Record request — test call for CCNCc1ccncc1
0.0

====

# System: U251 CNS
# assay name: NCI-60 one-dose screen, 48 h (100 = growth as untreated, 0 = no growth, -100 = all killed)
# run parameters: 10 µM unless noted
About 83,000 compounds went through this panel and 20% of them were active in at least one assay; those are over-represented in the sample as a whole. Active and inactive are the calls of the source. The calls were made as follows: active = growth percent below 10; inactive = the rest.
readout name: growth

compound	readout name	assay value
N#Cc1ncc(-c2ccc(F)c(F)c2F)c(NC2CCCCCC2)n1	growth	59.1% (inactive)
CC1=C(C#N)C(C)(C)C(C#N)=C(C)N1	growth	94.8% (inactive)
CC(=O)Nc1nc(C(=O)N2N=C(C)/C(=C/c3cccs3)C2=O)cs1	growth	99.4% (inactive)
O=Nc1c(-c2c(O)[nH]c3ccc([N+](=O)[O-])cc23)[nH]c2ccc(O)cc12	growth	0.602% (active)
O=c1cc(C2NCCc3c2[nH]c2ccccc32)c2c(ccc3ccccc32)o1 (configuration not stated)	growth	66.1% (inactive)
CCCCCCCN(CCCCCCC)C(=N)c1ccc(OC)c2ccccc12	growth	-90.5% (active)

What measured growth goes with CCn1cc(C(=O)O)c(=O)c2cc(F)c(N3CCN(S(=O)(=O)c4cccc5ccccc45)CC3)cc21 ?
14.2% (inactive)

What measured growth goes with COc1ccc(/C=C/C(=O)c2cccc(B(O)O)c2)cc1O ?
44.2% (inactive)

What measured growth goes with COc1ccc(NC(=O)c2cc3ccccc3nc2Nc2cc(OC)c(OC)c(OC)c2)cc1 ?
54.2% (inactive)

====

# Test system: NCI-H522 lung
# assay name: NCI-60 one-dose screen, 48 h (100 = growth as untreated, 0 = no growth, -100 = all killed)
# run parameters: 10 µM unless noted
The panel holds about 83,000 compounds, 20% with a hit somewhere; the sample as a whole holds those more often.
readout name: growth (%)
Number in %, nothing else.

compound	growth / %
CC(=O)Nc1ccc(S(=O)(=O)N2C(=O)CCC2C(=O)Nc2ccccc2)cc1 (configuration not stated)	27.5
Cc1cc(NC(=O)COC(=O)c2sc3cc(F)ccc3c2Cl)no1	99.3
CC/C=C\C[C@H]1C/C=C2/C(=O)C(Cl)=C[C@@H]2C/C=C\CCCC(=O)O1	-60.6
O=C(CN1CCN(c2cc3c(cc2F)c(=O)c(C(=O)O)cn3C2CC2)CC1)Nc1ccc(C(=O)/C=C/c2ccc(Cl)cc2)cc1	47.7

What measured growth goes with Cc1ccc2c(c1)C(=O)C(c1c(-c3[nH]c(=O)c4ccc(C)cc4c3O)c(O)c3ccccc3c1O)=NC2=O ?
7.58

What measured growth goes with Cc1ccc2nc(SCn3nnc4ccccc4c3=O)[nH]c2c1 ?
89.5

What measured growth goes with Cc1ccc(S(=O)(=O)OCC(=O)Nc2ccc(C(=O)O)c(O)c2)cc1 ?
93.8

What measured growth goes with CCCCCC/C=C\CCCCCCCCOc1ccc(CCOP(=O)(O)OCC[N+](C)(C)C)cc1 ?
59

What measured growth goes with CCO/C=N/NC(=O)c1ccncc1 ?
98

What measured growth goes with O=C(CNC(=O)c1cccc2ccccc12)Nc1ccccc1Oc1ccccc1 ?
-10.5

What measured growth goes with CC/C=C\C/C=C\C[C@H]1C/C=C2/C(=O)C=C[C@H]2C/C=C\CCC(=O)O1 ?
-56

What measured growth goes with CCN1C(=O)N(CC)C2Nn3c(s/c(=C\c4cccc(F)c4)c3=O)=NC21 (configuration not stated) ?
64.4

====

Reported growth by item:
# Test system: A498 renal
# assay name: NCI-60 one-dose screen, 48 h (100 = growth as untreated, 0 = no growth, -100 = all killed)
# run parameters: 10 µM unless noted
About 83,000 compounds went through this panel and 20% of them were active in at least one assay; those are over-represented in the sample as a whole. Calls of active or inactive are those of the source. The calls were made as follows: active = growth percent below 10; inactive = the rest.

molecule	assay value
CC(C)N(Cc1ccc(CN(C(=O)CCl)C(C)C)cc1)C(=O)CCl	88.2% (inactive)
CCCCCCCN(CCCCCCC)C(=N)c1ccc(OC)c2ccccc12	-52.9% (active)
O=C(c1c[nH]c2ccccc12)C(Sc1nc2ccccc2c(=O)[nH]1)c1ccccc1 (stereo unspecified)	106% (inactive)
Cc1ccc2nc(-c3c(N)n[nH]c3CCCO)[nH]c(=O)c2c1	100% (inactive)

What measured growth goes with CCCn1c(=S)sc2c(Cl)nc(C)nc21 ?
98.5% (inactive)

What measured growth goes with CN1CCN(c2ccc3cc(-c4nc5ccccc5[nH]4)c(=O)oc3c2)CC1 ?
86.3% (inactive)

What measured growth goes with O=S(=O)(NCCCNc1cc(-c2cn(-c3ccccc3)nc2-c2cccc(O)c2)ccn1)c1ccc(C(F)(F)F)cc1 ?
57.2% (inactive)

What measured growth goes with CCCCC[C@@H]1Cc2cc(O)c(C(=O)O)c3c2[C@H](C[C@@]2(CCCO2)O3)O1 ?
133% (inactive)

What measured growth goes with COc1ccc(NC(=O)/N=c2\oc3c(OC)cccc3cc2-c2cc3ccccc3[nH]2)cc1 ?
75% (inactive)

What measured growth goes with CSc1ccccc1C#C/C=C\C#Cc1ccccc1N1CCCC1=O ?
55.3% (inactive)

What measured growth goes with Cc1cccc2cc(/C=C/C(=O)/C=C/c3ccc(Cl)cc3)c(=O)[nH]c12 ?
63.1% (inactive)

What measured growth goes with O=S(=O)(O)CCl ?
111% (inactive)

What measured growth goes with COc1cc(CCn2nnc3c(NCCCCO)ncnc32)cc(OC)c1 ?
89% (inactive)

What measured growth goes with CC(=O)Nc1ccc(S(=O)(=O)N2C(=O)CCC2C(=O)Nc2ccccc2)cc1 (stereo unspecified) ?
2.01% (active)

What measured growth goes with O=C1C2=C(C(=O)c3c(O)ccc(O)c31)N(c1cccnc1)Cc1ccccc1O2 ?
99% (inactive)

What measured growth goes with CCN(CC)P(=O)(N(CC)CC)N(CCCSC/C=C(\C)CC/C=C(\C)CCC=C(C)C)CCCN1CCN(C)CC1 ?
77.2% (inactive)

====

# Test system: MCF7 breast
# assay name: NCI-60 one-dose screen, 48 h
# run parameters: 10 µM unless noted
Compounds without any hit were thinned out: in the full panel of roughly 83,000, 20% have a hit. Calls of active or inactive are those of the source. Rule for the calls: active = growth percent below 10; inactive = the rest.
API: response.call in 1 (yes) for active, 0 (no) for inactive

Completed entries (count: 3):
compound	assigned class
COc1ccc(S(=O)(=O)NCCNc2nccc(-c3c(-c4ccccc4)nc4sccn34)n2)cc1	1 (yes)
O=C1Nc2ccc(Br)cc2C1=N/C=c1\[nH]c(=O)/c(=C/c2ccc(Cl)cc2)s1	0 (no)
COc1cc(/C=C/C(=O)c2ccc(NC(=O)CN3CCN(c4cc5c(cc4F)c(=O)c(C(=O)O)cn5C4CC4)CC3)cc2)cc(OC)c1OC	0 (no)

Record request — test call for Cc1c(C(=O)NCc2ccccc2)[n+](=O)c2cc(F)ccc2n1[O-]
0 (no)

Record request — test call for CC1CCc2c(sc(NC(=O)CSc3nnc4ccccn34)c2C(N)=O)C1 (configuration not stated)
0 (no)

Record request — test call for COc1cc(-c2csc(NC(=O)c3cc(C(F)(F)F)cc(C(F)(F)F)c3)n2)cc(OC)c1OC
0 (no)

Record request — test call for COc1cc(NC(=O)c2cc3ccccc3nc2Nc2ccc(F)cc2)cc(OC)c1OC
0 (no)
